Target: Acetylcholinesterase (Electrophorus electricus)
Experiment: Inhibition of electric eel AChE assessed as purple zones of inhibition after 20 mins by TLC bioautography
Property: INH; scope: individual compounds
Write it as a number; the unit µg goes unstated.

Reference set (2 entries):
- CNC(=O)Oc1ccc2c(c1)[C@]1(C)CCN(C)[C@@H]1N2C: 0.05
- CCCCCC(=O)CCCCCCc1ccc(O)c(C)n1: 0.75

// next entry
API: value(readout=INH, system=Acetylcholinesterase (Electrophorus electricus)) for record Cc1nc(CCCCCCC(=O)CCCCCO)ccc1O
0.18
